Below, each entry is listed with its recorded activity at 0.3 ppm.
- Tested on: tobacco into which bchH gene was introduced
- ASSAY NAME: Leaf piece chlorophyll test, tobacco into which bchH gene was introduced
- Type: in vivo
- ASSAY CONDITIONS: Nicotiana tabacum, bchH recombinant tobacco; 0.30 ppm; treated vs untreated leaf pieces; Table 5; read-out: Resistant level to test compound
Unit % implied. Number only.

Example cases with answers are listed next.
{"columns": ["COMPOUND", "SYSTEM UNDER TEST", "activity at 0.3 ppm / %"],
 "data": [
  ["C#CCN1C(=O)COc2cc(F)c(-n3c(=O)cc(C(F)(F)F)n(C)c3=O)cc21 [Structure 17]", "tobacco into which bchH gene was introduced", 80.4],
  ["C#CCN1C(=O)COc2cc(F)c(-c3cnc(C(F)(F)F)n(C)c3=O)cc21 [Structure 35]", "tobacco into which bchH gene was introduced", 83.3]
]}

Q: For the record C#CCOc1cc(-n2ncc(C(F)(F)F)c(C)c2=O)c(F)cc1Cl [Structure 28] , what value of activity at 0.3 ppm is listed for tobacco into which bchH gene was introduced?
Ans: 72.2

Q: What is its activity at 0.3 ppm for tobacco into which bchH gene was introduced? Entry: C#CCN1C(=O)COc2cc(F)c(N3C(=O)C4=C(CCCC4)C3=O)cc21 [Structure 11]
Ans: 78.1

###

Entries annotated with measured activity at 0.3 ppm
- Test system: control recombinant tobacco
- ASSAY NAME: Leaf piece chlorophyll test, control recombinant tobacco
- Assay type: in vivo
- ASSAY CONDITIONS: Nicotiana tabacum, control recombinant tobacco; 0.30 ppm; treated vs untreated leaf pieces; Table 5; read-out: Resistant level to test compound
The response must be a number in % with no trailing unit.

Consider the reported activity at 0.3 ppm for these molecules:
{"columns": ["MOLECULE", "UNIT NAME", "RECORDED VALUE"],
 "data": [
  ["C#CCN1C(=O)COc2cc(F)c(-c3cnc(C(F)(F)F)n(C)c3=O)cc21 [Structure 35]", "%", 17.4],
  ["C#CCN1C(=O)COc2cc(F)c(-n3c(=O)cc(C(F)(F)F)n(C)c3=O)cc21 [Structure 17]", "%", 14.3],
  ["C#CCN1C(=O)COc2cc(F)c(N3C(=O)C4=C(CCCC4)C3=O)cc21 [Structure 11]", "%", 5.51]
]}

Switching to the query record.
Q: activity at 0.3 ppm lookup needed for C#CCOc1cc(-n2ncc(C(F)(F)F)c(C)c2=O)c(F)cc1Cl [Structure 28] , thanks.
Ans: 8.79

The origin of these recorded values is patent US7973219B2.
